Data provenance: patent US20120207763A1

- measurement.target: JAK-3 (Homo sapiens)
- Construct: GST fusion constructs of the kinase domains of both enzymes are used; GST
- Sequence (P52333 822-1111 limits assumed): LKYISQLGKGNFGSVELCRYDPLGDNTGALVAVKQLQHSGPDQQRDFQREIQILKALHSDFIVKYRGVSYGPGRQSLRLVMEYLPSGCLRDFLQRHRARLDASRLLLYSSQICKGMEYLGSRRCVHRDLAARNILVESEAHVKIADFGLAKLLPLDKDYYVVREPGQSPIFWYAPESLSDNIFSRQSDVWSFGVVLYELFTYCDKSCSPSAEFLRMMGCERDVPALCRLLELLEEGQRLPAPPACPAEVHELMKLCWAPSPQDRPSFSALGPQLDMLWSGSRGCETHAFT
- assay.info: JAK LANCE enzymatic assay (JAK-3)
- Format: biochemical
- reported.conditions: Table A; read-out: Jak-3/ IC50
Item-by-item account of IC50

| molecule | IC50 |
| --- | --- |
| COc1ccc(C(=O)N2CCOCC2)cc1Nc1ncc2c(n1)NC(=O)C2 [drawing 19] | ≥ 100 nM |
| CCC(CC)n1ccc2cnc(Nc3cccc(OCCN4CCCC4)c3)nc21 | ≤ 100 nM |
| CN1CCN(c2ccc(Nc3ncc4c(n3)N(C3CCCCC3)C(=O)C4)cc2)CC1 | ≤ 100 nM |
| CCC(CC)N1C(=O)Cc2cnc(Nc3cccc(NCCN4CCN(C)CC4)c3)nc21 | ≤ 100 nM |
| CCC(CC)N1C(=O)Cc2cnc(Nc3cccc(-c4nncn4C)c3)nc21 | ≥ 100 nM |
